- TARGET ENTITY: Amine oxidase [flavin-containing] A (Homo sapiens); note: assay procedure not described here
- Sequence (P21397 whole entry): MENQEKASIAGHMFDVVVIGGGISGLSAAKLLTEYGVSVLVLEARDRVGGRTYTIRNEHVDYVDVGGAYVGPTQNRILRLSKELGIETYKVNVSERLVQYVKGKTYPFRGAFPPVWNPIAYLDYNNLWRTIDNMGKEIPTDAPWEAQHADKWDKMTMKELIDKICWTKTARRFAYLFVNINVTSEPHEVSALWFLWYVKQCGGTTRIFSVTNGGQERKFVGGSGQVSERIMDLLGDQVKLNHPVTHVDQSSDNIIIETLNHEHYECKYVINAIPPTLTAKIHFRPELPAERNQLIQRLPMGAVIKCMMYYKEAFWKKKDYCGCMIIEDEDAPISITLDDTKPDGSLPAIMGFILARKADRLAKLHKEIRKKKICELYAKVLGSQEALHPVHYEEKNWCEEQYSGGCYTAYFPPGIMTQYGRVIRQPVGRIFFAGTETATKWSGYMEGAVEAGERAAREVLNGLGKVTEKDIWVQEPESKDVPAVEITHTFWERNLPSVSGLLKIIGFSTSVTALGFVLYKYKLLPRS
- Type: functional
MEASURED ATTRIBUTE: AC50

For orientation, consider the following solved cases.
CC/C(=C(\c1ccccc1)c1ccc(OCCN(C)C)cc1)c1ccccc1 : > 10 µM
CCCN(CCC)C(=O)C(CCC(=O)O)NC(=O)c1ccccc1 (stereo not given) [PROGLUMIDE] : > 30 µM
CN(C)CCC(c1ccc(Cl)cc1)c1ccccn1 (stereo not given) : > 10 µM
CCOC(=O)[C@H](CCc1ccccc1)N[C@@H](C)C(=O)N1[C@H](C(=O)O)C[C@@H]2CCC[C@@H]21 : > 10 µM

Here is the next item to consider.
Task: Find the measured AC50: item "Clc1ccc2nsnc2c1NC1=NCCN1" , target or system Amine oxidase [flavin-containing] A (Homo sapiens). Note: assay procedure not described here.
Output: > 10 µM

###

- TARGET ENTITY: Prostaglandin G/H synthase 1 (Rattus norvegicus, UniProt Q63921); note: assay procedure not described here
- Sequence (Q63921 whole entry): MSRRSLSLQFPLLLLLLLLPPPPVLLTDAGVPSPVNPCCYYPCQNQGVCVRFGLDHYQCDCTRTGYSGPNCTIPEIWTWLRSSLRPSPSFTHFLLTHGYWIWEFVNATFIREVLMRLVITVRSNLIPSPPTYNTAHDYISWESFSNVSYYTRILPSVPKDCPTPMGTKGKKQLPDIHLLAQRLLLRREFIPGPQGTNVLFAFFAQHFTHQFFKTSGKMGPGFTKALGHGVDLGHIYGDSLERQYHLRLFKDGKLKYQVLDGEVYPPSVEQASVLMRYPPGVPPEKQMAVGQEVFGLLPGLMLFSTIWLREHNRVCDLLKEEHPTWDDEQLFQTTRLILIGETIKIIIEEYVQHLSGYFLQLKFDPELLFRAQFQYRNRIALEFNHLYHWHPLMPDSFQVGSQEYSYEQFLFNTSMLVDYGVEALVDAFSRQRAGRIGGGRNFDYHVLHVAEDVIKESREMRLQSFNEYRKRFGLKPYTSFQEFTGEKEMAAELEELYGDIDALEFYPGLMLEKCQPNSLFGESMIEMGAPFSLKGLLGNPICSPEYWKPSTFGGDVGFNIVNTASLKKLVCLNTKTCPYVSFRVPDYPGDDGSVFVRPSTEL
- Type: functional
A collection of compounds and their measured AC50

Field: example entries. Status: answers known.
Fc1ccc(C(c2ccccc2)(c2ccccc2F)n2ccnc2)cc1 (stereo not given) : > 30 µM
CC(C)C(=O)c1c(C(C)C)nn2ccccc12 : > 30 µM
NC(=O)CN1CC(O)CC1=O (stereo not given) : > 30 µM
Brc1c(NC2=NCCN2)ccc2nccnc12 : > 30 µM
CN1C(=O)CCS(=O)(=O)C1c1ccc(Cl)cc1 (stereo not given) : > 10 µM
CCOc1ccccc1OCC1CNCCO1 (stereo not given) : > 30 µM

Task: Would you mind telling me what AC50 value was observed for "C=CCC1(CC(C)C)C(=O)NC(=O)NC1=O" ?
Output: > 10 µM

Task: Given "C[C@H]1COc2c(C3(N)CC3)c(F)cc3c(=O)c(C(=O)O)cn1c23" , state its recorded AC50.
Output: > 30 µM

Task: Any idea what AC50 was measured for C[C@]12CCC(=O)C=C1CC[C@@H]1[C@@H]2[C@@H](O)C[C@@]2(C)[C@H]1CC[C@]2(O)C(=O)CO [HYDROCORTISONE] ?
Output: > 30 µM

Task: If you can, please state the reported AC50 value of "CNS(=O)(=O)Cc1ccc2[nH]cc(CCN(C)C)c2c1" .
Output: > 30 µM

###

- TARGET ENTITY: Sodium-dependent dopamine transporter (Homo sapiens); note: assay procedure not described here
- Sequence (Q01959 whole entry): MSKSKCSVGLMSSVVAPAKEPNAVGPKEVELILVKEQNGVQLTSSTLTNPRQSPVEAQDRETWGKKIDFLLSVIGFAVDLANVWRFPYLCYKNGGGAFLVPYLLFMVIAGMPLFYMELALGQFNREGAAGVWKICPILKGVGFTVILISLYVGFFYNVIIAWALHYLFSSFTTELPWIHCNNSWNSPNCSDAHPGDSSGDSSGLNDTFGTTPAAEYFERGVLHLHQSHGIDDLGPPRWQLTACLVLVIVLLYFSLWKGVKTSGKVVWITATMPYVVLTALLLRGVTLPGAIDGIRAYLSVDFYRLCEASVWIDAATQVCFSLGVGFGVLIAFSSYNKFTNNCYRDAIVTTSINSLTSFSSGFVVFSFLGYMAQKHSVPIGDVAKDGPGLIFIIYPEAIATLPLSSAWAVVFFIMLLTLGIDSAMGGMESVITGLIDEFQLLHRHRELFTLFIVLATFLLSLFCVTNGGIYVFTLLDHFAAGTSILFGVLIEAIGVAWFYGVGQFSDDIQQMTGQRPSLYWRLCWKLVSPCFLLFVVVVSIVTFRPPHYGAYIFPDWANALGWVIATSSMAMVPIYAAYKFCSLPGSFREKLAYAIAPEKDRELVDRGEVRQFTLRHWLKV
MEASURED ATTRIBUTE: AC50

Known results for compounds:
C=CCC1(C(C)CC)C(=O)NC(=O)NC1=O (centres undefined) : > 10 µM
CCCN1C[C@H](CSC)C[C@@H]2c3cccc4[nH]cc(c34)C[C@H]21 [PERGOLIDE] : 14.9 µM
CCCCc1ncc(/C=C(\Cc2cccs2)C(=O)O)n1Cc1ccc(C(=O)O)cc1 : > 30 µM
O=C(O)[C@H](CC(=O)N1C[C@H]2CCCC[C@H]2C1)Cc1ccccc1 [MITIGLINIDE] : > 10 µM
CCC(C(=O)O)c1ccc(N2Cc3ccccc3C2=O)cc1 (centres undefined) : > 30 µM
Fc1ccc(C(c2ccccc2)(c2ccccc2F)n2ccnc2)cc1 (centres undefined) : 23 µM
Nc1nc(NC2CC2)c2ncn([C@H]3C=C[C@@H](CO)C3)c2n1 : > 30 µM
Nc1nc(Cl)nc2c1ncn2[C@H]1C[C@H](O)[C@@H](CO)O1 : > 30 µM
O=C(O)/C=C/c1ccc(Cn2ccnc2)cc1 : > 30 µM
O=C(O)C1=C(CSc2nnnn2CS(=O)(=O)O)CS[C@@H]2[C@H](NC(=O)[C@H](O)c3ccccc3)C(=O)N12 : > 30 µM

Query compound follows.
Task: What does the data say about its AC50? Entry: CCN(CC)C(=O)N[C@H]1C[C@@H]2c3cccc4[nH]cc(c34)C[C@H]2N(C)C1 [TERGURIDE]
Output: > 30 µM

###

Observed AC50 values for Gamma-aminobutyric acid receptor subunit alpha-1 (Rattus norvegicus, UniProt P62813) are listed in what follows.

The cases that follow already have their AC50 on record.
Cc1nc([N+](=O)[O-])cn1-c1ccc([N+](=O)[O-])cc1 [NITREFAZOLE] : > 30 µM
C#C[C@]1(O)CC[C@H]2[C@@H]3[C@H](C)CC4=C(CCC(=O)C4)[C@H]3CC[C@@]21C [TIBOLONE] : > 30 µM
CC(C(=O)O)c1ccc(N2Cc3ccccc3C2=O)cc1 (centres undefined) [INDOPROFEN] : > 30 µM
COC(=O)[C@H]1[C@H]2C[C@@H]3c4[nH]c5cc(OC)ccc5c4CCN3C[C@H]2C[C@@H](OC(=O)/C=C/c2cc(OC)c(OC)c(OC)c2)[C@@H]1OC [RESCINNAMINE] : > 10 µM
COc1ccc2c3c1O[C@H]1[C@@H](O)C=C[C@H]4[C@@H](C2)N(C)CC[C@@]341 [CODEINE] : > 30 µM

Task: # AC50 lookup, item "CC=CC(=O)N(CC)c1ccccc1C"
Output: > 10 µM

Task: Which AC50 value belongs to CC(CC1c2ccccc2CCc2ccccc21)CN(C)C (centres undefined) [BUTRIPTYLINE] ?
Output: > 30 µM

Task: So what's the measured AC50 for this one? Nc1ccn([C@H]2CC[C@@H](CO)O2)c(=O)n1 [ZALCITABINE]
Output: > 10 µM

Task: Item "CNS(=O)(=O)Cc1ccc2[nH]cc(CCN(C)C)c2c1" has what recorded AC50?
Output: > 30 µM

Task: What value of AC50 has been reported for the following molecule? COc1cc2c(N)nc(N3CCN(C(=O)OCC(C)(C)O)CC3)nc2c(OC)c1OC [TRIMAZOSIN]
Output: > 30 µM

Task: Tell me the measured AC50 of C[C@@H]1O[C@@H](O[C@@H]2C=C3CC[C@@H]4[C@H](CC[C@]5(C)[C@@H](c6ccc(=O)oc6)CC[C@]45O)[C@@]3(C)CC2)[C@H](O)[C@H](O)[C@H]1O [PROSCILLARIDIN] , please.
Output: > 30 µM

Task: Any idea what its AC50 is? The molecule is CCc1c(Cl)c(O)c(Cl)c(O)c1C(=O)O[C@H]1[C@H](O)[C@H](OC)[C@H](OC/C2=C\C=C\C[C@H](O)/C(C)=C/[C@H](CC)[C@@H](O[C@@H]3OC(C)(C)[C@@H](OC(=O)C(C)C)[C@H](O)[C@@H]3O)/C(C)=C/C(C)=C/C[C@@H]([C@@H](C)O)OC2=O)O[C@@H]1C [FIDAXOMICIN]
Output: > 10 µM

Task: Param item = Cc1ccc(-n2nccn2)c(C(=O)N2CCN(c3nc4cc(Cl)ccc4o3)CC[C@H]2C)c1 [SUVOREXANT] ; retrieve measured AC50.
Output: > 30 µM

Task: Param item = O=C(O)[C@H](CC(=O)N1C[C@H]2CCCC[C@H]2C1)Cc1ccccc1 [MITIGLINIDE] ; retrieve measured AC50.
Output: > 10 µM

Task: Fill in the blank: the reported AC50 of COc1ccccc1N1CCN(CC(O)COc2cccc3ccccc23)CC1 (centres undefined) [NAFTOPIDIL] is ____.
Output: > 30 µM

Task: Quick one: AC50 for CN(C)CC/C=C1\c2ccccc2CSc2ccccc21 [DOTHIEPIN] ?
Output: > 30 µM

Task: Please report the recorded AC50 for CC[C@@H]1C(=O)OC[C@@H]1Cc1cncn1C [PILOCARPINE] .
Output: > 10 µM

Task: Look at this molecule and give its reported AC50. C[C@@H](O)[C@H]1C(=O)N2C(C(=O)O)=C(S[C@@H]3CN[C@H](C(=O)N(C)C)C3)[C@H](C)[C@H]12 [MEROPENEM]
Output: > 10 µM

Task: May I ask what AC50 has been recorded for CN(C)CCc1c[nH]c2ccc(C[C@H]3COC(=O)N3)cc12 [ZOLMITRIPTAN] ?
Output: > 30 µM

Task: Fill in: AC50 of "CC(C)(C)C(=O)Oc1ccc(S(=O)(=O)Nc2ccccc2C(=O)NCC(=O)O)cc1" is ___
Output: > 30 µM

###

- TARGET ENTITY: Type-1 angiotensin II receptor (Homo sapiens, UniProt P30556); note: assay procedure not described here
- Sequence (P30556 whole entry): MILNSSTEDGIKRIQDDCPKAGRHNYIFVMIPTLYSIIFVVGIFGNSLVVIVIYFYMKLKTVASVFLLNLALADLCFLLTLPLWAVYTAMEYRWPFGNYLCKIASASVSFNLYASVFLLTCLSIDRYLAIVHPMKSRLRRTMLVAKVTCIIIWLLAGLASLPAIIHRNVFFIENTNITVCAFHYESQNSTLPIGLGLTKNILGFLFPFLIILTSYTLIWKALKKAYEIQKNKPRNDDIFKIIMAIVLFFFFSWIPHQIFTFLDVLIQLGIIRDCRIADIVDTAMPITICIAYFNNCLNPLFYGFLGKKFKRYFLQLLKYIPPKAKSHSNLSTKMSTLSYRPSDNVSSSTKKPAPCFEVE
MEASURED ATTRIBUTE: AC50

The following compounds have reported results that may help.
COc1ccc(-c2ccc3cc(C(=O)O)ccc3c2)cc1C12CC3CC(CC(C3)C1)C2 : > 30 µM
C[C@@H]1O[C@@H](O[C@@H]2C=C3CC[C@@H]4[C@H](CC[C@]5(C)[C@@H](c6ccc(=O)oc6)CC[C@]45O)[C@@]3(C)CC2)[C@H](O)[C@H](O)[C@H]1O [PROSCILLARIDIN] : > 30 µM
CC(C)(C)C(=O)Oc1ccc(S(=O)(=O)Nc2ccccc2C(=O)NCC(=O)O)cc1 : > 30 µM
CC[C@@H]1C(=O)OC[C@@H]1Cc1cncn1C [PILOCARPINE] : > 30 µM

Task: I have this compound here, COc1ccc(CC(C)(C)NC[C@H](O)c2cc(O)cc3c2OCC(=O)N3)cc1 [OLODATEROL] , and I need its recorded AC50.
Output: > 30 µM

Task: Please give the measured AC50 for this compound: "CCC(CC)(CC(=O)Nc1cccc(/C=C/c2nc(C3CCC3)cs2)c1)C(=O)O"
Output: > 30 µM

Task: I have this compound here, COc1ccccc1OCCNCC(O)c1ccc(C)c(S(N)(=O)=O)c1 (stereo not drawn) [AMOSULALOL] , and I need its recorded AC50.
Output: > 30 µM

Task: Which AC50 value belongs to C[C@]1(O)CC[C@H]2[C@@H]3CCC4=CC(=O)CC[C@]4(C)[C@@]3(F)[C@@H](O)C[C@@]21C [FLUOXYMESTERONE] ?
Output: > 10 µM
